pKi: −log10 of the molar value.
quantity.name: pKi

Summary: CC(C)(C)c1ccc(NC(=O)N2CCN(c3ncccc3Cl)CC2)cc1 [BCTC] , Endothelin-1 receptor (Rattus norvegicus), pKi = < 5.00

----------
tested.on: Beta-2 adrenergic receptor (Rattus norvegicus)
Sequence (P10608 whole entry): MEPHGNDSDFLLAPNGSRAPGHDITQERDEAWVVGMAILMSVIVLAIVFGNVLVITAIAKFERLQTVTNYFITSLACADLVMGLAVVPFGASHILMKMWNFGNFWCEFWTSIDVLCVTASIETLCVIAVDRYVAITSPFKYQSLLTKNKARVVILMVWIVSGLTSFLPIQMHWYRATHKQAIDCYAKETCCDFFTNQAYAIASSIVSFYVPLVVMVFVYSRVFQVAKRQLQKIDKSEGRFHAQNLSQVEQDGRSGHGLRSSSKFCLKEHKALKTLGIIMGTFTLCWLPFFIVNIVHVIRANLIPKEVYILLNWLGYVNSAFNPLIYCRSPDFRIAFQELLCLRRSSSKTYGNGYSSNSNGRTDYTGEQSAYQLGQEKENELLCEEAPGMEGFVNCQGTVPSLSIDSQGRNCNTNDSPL
pKi: −log10 of the molar value.
quantity.name: pKi

Value of pKi reported for the compound CC(C)(C)c1ccc(NC(=O)N2CCN(c3ncccc3Cl)CC2)cc1 is < 5.00

----------
pKi: −log10 of the molar value.
quantity.name: pKi

Summary: CC(C)(C)c1ccc(NC(=O)N2CCN(c3ncccc3Cl)CC2)cc1 , UniProt:P29476, pKi = < 5.00

----------
tested.on: Gamma-aminobutyric acid receptor subunit alpha-1 (Rattus norvegicus)
Sequence (P62813 whole entry): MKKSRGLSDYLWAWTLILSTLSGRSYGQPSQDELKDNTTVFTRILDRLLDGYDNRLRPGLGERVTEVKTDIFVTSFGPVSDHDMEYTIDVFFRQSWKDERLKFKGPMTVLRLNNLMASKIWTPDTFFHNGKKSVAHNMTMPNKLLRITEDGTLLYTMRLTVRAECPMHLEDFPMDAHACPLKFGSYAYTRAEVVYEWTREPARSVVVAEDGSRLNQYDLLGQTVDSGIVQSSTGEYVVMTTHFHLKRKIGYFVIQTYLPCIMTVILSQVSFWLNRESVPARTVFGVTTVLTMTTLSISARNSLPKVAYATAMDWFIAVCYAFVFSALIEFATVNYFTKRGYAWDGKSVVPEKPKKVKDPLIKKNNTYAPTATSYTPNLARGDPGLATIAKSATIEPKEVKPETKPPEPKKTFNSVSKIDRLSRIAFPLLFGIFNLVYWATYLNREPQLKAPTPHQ
quantity.name: Ki

Value of Ki reported for the compound CC(C)(C)c1ccc(NC(=O)N2CCN(c3ncccc3Cl)CC2)cc1 [BCTC] is > 10 µM

----------
tested.on: Muscarinic acetylcholine receptor M1 (Rattus norvegicus, UniProt P08482)
Sequence (P08482 whole entry): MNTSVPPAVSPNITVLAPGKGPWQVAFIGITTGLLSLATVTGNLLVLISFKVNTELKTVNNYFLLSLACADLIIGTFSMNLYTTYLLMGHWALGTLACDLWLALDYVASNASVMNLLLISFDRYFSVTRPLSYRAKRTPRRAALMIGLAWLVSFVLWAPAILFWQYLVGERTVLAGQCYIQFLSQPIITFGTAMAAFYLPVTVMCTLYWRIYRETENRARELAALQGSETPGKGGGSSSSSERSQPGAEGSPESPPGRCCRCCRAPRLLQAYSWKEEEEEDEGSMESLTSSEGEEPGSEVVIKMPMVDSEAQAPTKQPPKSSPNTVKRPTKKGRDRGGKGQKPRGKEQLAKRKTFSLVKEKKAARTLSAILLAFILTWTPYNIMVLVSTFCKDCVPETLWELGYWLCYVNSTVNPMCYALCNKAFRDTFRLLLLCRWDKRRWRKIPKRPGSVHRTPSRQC
quantity.name: Ki

Value of Ki reported for the compound CC(C)(C)c1ccc(NC(=O)N2CCN(c3ncccc3Cl)CC2)cc1 is > 10 µM

----------
Protein target, amino acids: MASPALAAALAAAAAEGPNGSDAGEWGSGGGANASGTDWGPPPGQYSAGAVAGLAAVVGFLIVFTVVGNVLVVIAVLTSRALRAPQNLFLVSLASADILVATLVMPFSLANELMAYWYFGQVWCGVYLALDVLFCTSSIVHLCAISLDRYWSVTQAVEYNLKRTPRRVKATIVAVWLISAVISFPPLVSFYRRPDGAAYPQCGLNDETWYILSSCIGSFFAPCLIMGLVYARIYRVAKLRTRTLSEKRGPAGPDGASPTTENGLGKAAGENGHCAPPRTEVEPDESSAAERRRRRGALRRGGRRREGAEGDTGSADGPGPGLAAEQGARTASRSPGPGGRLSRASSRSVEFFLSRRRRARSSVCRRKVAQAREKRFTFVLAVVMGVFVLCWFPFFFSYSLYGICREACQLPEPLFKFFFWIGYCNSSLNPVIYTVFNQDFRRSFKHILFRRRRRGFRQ
quantity.name: Ki

Value of Ki reported for the compound CC(C)(C)c1ccc(NC(=O)N2CCN(c3ncccc3Cl)CC2)cc1 is > 10 µM

----------
pKi: −log10 of the molar value.
quantity.name: pKi

Summary: CC(C)(C)c1ccc(NC(=O)N2CCN(c3ncccc3Cl)CC2)cc1 [BCTC] , Sodium channel protein type 2 subunit alpha (Rattus norvegicus, UniProt P04775), pKi = < 5.00

----------
tested.on: Substance-P receptor (Rattus norvegicus)
Sequence (P14600 whole entry): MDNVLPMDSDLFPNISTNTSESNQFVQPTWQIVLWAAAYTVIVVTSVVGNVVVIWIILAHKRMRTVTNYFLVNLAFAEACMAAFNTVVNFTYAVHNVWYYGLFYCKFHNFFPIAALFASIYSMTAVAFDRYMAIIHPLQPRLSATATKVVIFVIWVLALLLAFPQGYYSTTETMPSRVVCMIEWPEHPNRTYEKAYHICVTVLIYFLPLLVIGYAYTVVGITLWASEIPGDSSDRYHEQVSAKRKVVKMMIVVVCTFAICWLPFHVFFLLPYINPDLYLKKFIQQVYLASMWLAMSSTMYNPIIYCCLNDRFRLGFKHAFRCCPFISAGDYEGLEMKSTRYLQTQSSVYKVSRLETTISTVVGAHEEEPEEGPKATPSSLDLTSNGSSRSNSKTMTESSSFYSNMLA
quantity.name: Ki

Summary: CC(C)(C)c1ccc(NC(=O)N2CCN(c3ncccc3Cl)CC2)cc1 , Substance-P receptor (Rattus norvegicus), Ki = > 10 µM

----------
tested.on: Hrh3 protein (Rattus norvegicus)
Sequence (Q5PPG3 whole entry): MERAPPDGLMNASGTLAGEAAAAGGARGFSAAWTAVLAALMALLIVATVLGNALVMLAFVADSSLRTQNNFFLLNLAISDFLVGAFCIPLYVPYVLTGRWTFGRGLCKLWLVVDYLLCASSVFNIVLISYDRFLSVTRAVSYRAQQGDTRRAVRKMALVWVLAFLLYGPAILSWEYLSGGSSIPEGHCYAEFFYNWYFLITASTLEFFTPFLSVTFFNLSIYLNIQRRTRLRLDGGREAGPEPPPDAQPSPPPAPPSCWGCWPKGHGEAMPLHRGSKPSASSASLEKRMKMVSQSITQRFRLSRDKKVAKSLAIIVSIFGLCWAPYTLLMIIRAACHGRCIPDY
quantity.name: Ki

Value of Ki reported for the compound CC(C)(C)c1ccc(NC(=O)N2CCN(c3ncccc3Cl)CC2)cc1 [BCTC] is > 10 µM

----------
Target protein (sequence): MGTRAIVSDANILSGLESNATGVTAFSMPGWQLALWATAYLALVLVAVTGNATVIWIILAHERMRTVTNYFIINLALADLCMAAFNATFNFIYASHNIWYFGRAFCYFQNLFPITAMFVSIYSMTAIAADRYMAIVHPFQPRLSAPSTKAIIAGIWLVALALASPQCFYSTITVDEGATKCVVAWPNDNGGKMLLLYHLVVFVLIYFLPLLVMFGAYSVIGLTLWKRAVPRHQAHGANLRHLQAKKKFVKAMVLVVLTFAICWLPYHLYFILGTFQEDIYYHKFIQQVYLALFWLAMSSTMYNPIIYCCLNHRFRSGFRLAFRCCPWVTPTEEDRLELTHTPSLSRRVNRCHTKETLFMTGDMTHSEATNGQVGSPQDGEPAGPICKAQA
quantity.name: Ki

Value of Ki reported for the compound CC(C)(C)c1ccc(NC(=O)N2CCN(c3ncccc3Cl)CC2)cc1 [BCTC] is > 10 µM
